Would you kindly list Km for each of these proteins?
Substrate: C[C@H](NC(=O)CCC(=O)O)C(=O)N[C@@H](C)C(=O)N1CCC[C@H]1C(=O)N[C@@H](Cc1ccccc1)C(=O)Nc1ccc([N+](=O)[O-])cc1
protocol_summary: Kinetic parameters from progress curves, p-nitroanilide substrates
Type: biochemical, B. amyloliquefaciens
applied_conditions: other: 25° C., 0.1M tris buffer, pH 8.6
Procedure: The procedure of Examples 13-14 was followed in substantial detail, except that the mutagenesis primer differed (the 37 mer shown in FIG. 13 was used), the two restriction enzymes were SacI and XmaIII rather than PstI and KpnI and the resulting constructions differed, as shown in FIG. 13. […] Various mutants for glycine+166 were screened for modified Kcat, Km and Kcat/Km ratios. […] The rate of reaction was measured as a function of substrate concentration. […]
Answer with the figure and its unit, nothing else.

Ask | Supply measured Km of B. amyloliquefaciens subtilisin variant ala + 166 (A166, glycine+166 substituted) (Bacillus amyloliquefaciens; G273A) (protein, codons for the mature subtilisin corresponding to that secreted by the B. amyloliquefaciens; made in house; host or cells: Bacillus subtilis BG2036 (protease deficient)) AQSVPYGVSQIKAPALHSQGYTGSNVKVAVIDSGIDSSHPDLKVAGGASMVPSETNPFQDNNSHGTHVAGTVAALNNSIGVLGVAPSASLYAVKVLGADGSGQYSWIINGIEWAIANNMDVINMSLGGPSGSAALKAAVDKAVASGVVVVAAAGNEGTSGSSSTVAYPGKYPSVIAVGAVDSSNQRASFSSVGPELDVMAPGVSIQSTLPGNKYGAYNGTSMASPHVAGAAALILSKHPNWTNTQVRSSLENTTTKLGDSFYYGKGLINVQAAAQ in your reply.
Reply | 27 µM

Ask | Please report the measured Km for B. amyloliquefaciens subtilisin variant phe + 166 (glycine+166 substituted) (Bacillus amyloliquefaciens; G273F) (protein, codons for the mature subtilisin corresponding to that secreted by the B. amyloliquefaciens; made in house; host or cells: Bacillus subtilis BG2036 (protease deficient)) AQSVPYGVSQIKAPALHSQGYTGSNVKVAVIDSGIDSSHPDLKVAGGASMVPSETNPFQDNNSHGTHVAGTVAALNNSIGVLGVAPSASLYAVKVLGADGSGQYSWIINGIEWAIANNMDVINMSLGGPSGSAALKAAVDKAVASGVVVVAAAGNEGTSGSSSTVFYPGKYPSVIAVGAVDSSNQRASFSSVGPELDVMAPGVSIQSTLPGNKYGAYNGTSMASPHVAGAAALILSKHPNWTNTQVRSSLENTTTKLGDSFYYGKGLINVQAAAQ
Reply | 14 µM

Hello, the source for this data is patent US5264366A, in case you need it.
